- System: DLD1 NRF2-GOF
- procedure text: TC50 cytotoxicity; higher = less toxic
- experimental context: 72 h; CellTox Green cytotoxicity
Below, each entry is listed alongside its reported TC50 cytotoxicity.

- compound: "C[C@@H]1CN(CC(=O)Nc2ccc3c(c2)Cc2cccc(-c4cc(=O)cc(N5CCOCC5)o4)c2S3)C[C@H](C)O1"
  TC50 cytotoxicity: "> 25 µM"
- compound: "CNC(=O)c1ccc(-c2cnc3ncc(Cc4ccc5ncccc5c4)n3n2)cc1F"
  TC50 cytotoxicity: "> 1 µM"
- compound: "CN(C)Cc1ccc(S(=O)(=O)n2ccc(/C=C/C(=O)NO)c2)cc1"
  TC50 cytotoxicity: "> 10 µM"
- compound: "CN1CC[C@@H](NC(=O)Nc2ccc(C#N)cc2)C[C@@H]1c1nc2ccccc2[nH]1"
  TC50 cytotoxicity: "> 1 µM"
- compound: "COc1cc2c(Nc3ccc(Cl)c(Cl)c3F)ncnc2cc1OC[C@@H]1C[C@@H]2CN(C)C[C@@H]2C1"
  TC50 cytotoxicity: "> 1 µM"
- compound: "CC(C)N(CCCNC(=O)Nc1ccc(C(C)(C)C)cc1)C[C@H]1O[C@@H](n2cc(Br)c3c(N)ncnc32)[C@H](O)[C@@H]1O"
  TC50 cytotoxicity: "> 10 µM"
- compound: "Cc1cc2c(C(=O)NC[C@H](C)c3ccccc3)c(O)c(O)cc2c(O)c1-c1c(C)cc2c(C(=O)NC[C@H](C)c3ccccc3)c(O)c(O)cc2c1O"
  TC50 cytotoxicity: "> 25 µM"
- compound: "CCOc1ccccc1-n1c(C(C)N2CCN(C(=O)COc3ccc(Cl)cc3)CC2)nc2ccccc2c1=O (stereo not drawn)"
  TC50 cytotoxicity: "> 10 µM"

* * *

Below, each entry is listed alongside its reported TC50 cytotoxicity.
- System: DLD1 NRF2-GOF
- procedure text: TC50 cytotoxicity; higher = less toxic
- experimental context: 72 h; CellTox Green cytotoxicity

- compound: "CN1CCN(CCOc2cc(OC3CCOCC3)c3c(Nc4c(Cl)ccc5c4OCO5)ncnc3c2)CC1 [Saracatinib]"
  target: "DLD1 NRF2-GOF"
  TC50 cytotoxicity: "> 10 µM"
- compound: "Cc1sc2c(c1C)C(c1ccc(Cl)cc1)=N[C@@H](CC(=O)Nc1ccc(O)cc1)c1nnc(C)n1-2 [Birabresib]"
  target: "DLD1 NRF2-GOF"
  TC50 cytotoxicity: "> 10 µM"
- compound: "COc1cc(Nc2c(C#N)cnc3cc(OCCCN4CCN(C)CC4)c(OC)cc23)c(Cl)cc1Cl [Bosutinib]"
  target: "DLD1 NRF2-GOF"
  TC50 cytotoxicity: "3.43 µM"
- compound: "CCn1c(-c2nonc2N)nc2cnc(Oc3cccc(NC(=O)c4ccc(OCCN5CCOCC5)cc4)c3)cc21"
  target: "DLD1 NRF2-GOF"
  TC50 cytotoxicity: "1.55 µM"
- compound: "CN[C@@H](C)C(=O)N[C@H]1CN(C(=O)CC(C)C)CC[C@H]2CC[C@@H](C(=O)NC(c3ccccc3)c3ccccc3)N2C1=O [AT-406]"
  target: "DLD1 NRF2-GOF"
  TC50 cytotoxicity: "> 10 µM"
- compound: "CC(C)NC[C@@H](C(=O)N1CCN(c2ncnc3c2[C@H](C)C[C@H]3O)CC1)c1ccc(Cl)cc1 [Ipatasertib]"
  target: "DLD1 NRF2-GOF"
  TC50 cytotoxicity: "> 10 µM"
- compound: "Cc1nc(Nc2n[nH]c3c2CN(C(=O)N[C@H](CN(C)C)c2ccccc2)C3(C)C)c2sccc2n1"
  target: "DLD1 NRF2-GOF"
  TC50 cytotoxicity: "> 10 µM"

* * *

- System: DLD1 NRF2-GOF
- procedure text: drug sensitivity score (DSS) cytotoxicity (DSS score); higher = more toxic; extreme values may be limits of the assay
- experimental context: 72 h; CellTox Green cytotoxicity
Below, each entry is listed alongside its reported drug sensitivity score.

- compound: "COc1cc(Nc2c(C#N)cnc3cc(OCCCN4CCN(C)CC4)c(OC)cc23)c(Cl)cc1Cl [Bosutinib]"
  drug sensitivity score: 3.1
- compound: "CCOCc1nc2c(N)nc3ccccc3c2n1CC(C)(C)O [Resiquimod]"
  drug sensitivity score: 0
- compound: "C[C@H]1O[C@@H](O[C@H]2[C@@H](O)C[C@H](O[C@H]3[C@@H](O)C[C@H](O[C@H]4CC[C@@]5(C)[C@H](CC[C@@H]6[C@@H]5C[C@@H](O)[C@]5(C)[C@@H](C7=CC(=O)OC7)CC[C@]65O)C4)O[C@@H]3C)O[C@@H]2C)C[C@H](O)[C@@H]1O [Digoxin]"
  drug sensitivity score: 4.6
- compound: "COc1ccc(CCc2nc3cc(-c4c(C)noc4C)ccc3n2C[C@H](C)N2CCOCC2)cc1Cl [SGC-CBP30]"
  drug sensitivity score: 0.2
- compound: "CCCCCCCCCCCCCCCCOP(=O)([O-])OCC[N+](C)(C)C [Miltefosine]"
  drug sensitivity score: 9.7
- compound: "NCCNc1ccc(NCCN)c2c1C(=O)c1ccncc1C2=O [Pixantrone]"
  drug sensitivity score: 0
- compound: "COc1cc(NS(C)(=O)=O)ccc1Nc1c2ccccc2nc2ccccc12 [Amsacrine]"
  drug sensitivity score: 0
- compound: "O=C(CCNC(=O)c1ccc(OC(F)(F)F)cc1)N[C@@H]1CCCc2ccccc21 [ML390]"
  drug sensitivity score: 0
- compound: "Nc1cc(F)ccc1NC(=O)c1ccc(CNC(=O)/C=C/c2cccnc2)cc1 [Chidamide]"
  drug sensitivity score: 0
- compound: "CCOC(=O)CCNc1cc(N2CCc3ccccc3CC2)nc(-c2ccccn2)n1 [GSK-J4]"
  drug sensitivity score: 7.8
- compound: "CCN1CCN(c2ccc(Nc3cc(N(C)C(=O)Nc4c(Cl)c(OC)cc(OC)c4Cl)ncn3)cc2)CC1 [NVP-BGJ398]"
  drug sensitivity score: 0
- compound: "COc1cc(C(=O)O)ccc1NC(=O)[C@@H]1N[C@@H](CC(C)(C)C)[C@](C#N)(c2ccc(Cl)cc2F)[C@H]1c1cccc(Cl)c1F [Idasanutlin]"
  drug sensitivity score: 0
- compound: "CN(C)CCOc1ccc(/C(=C(/CCCl)c2ccccc2)c2ccccc2)cc1 [Toremifene]"
  drug sensitivity score: 0
- compound: "C[C@@H]1COCCN1c1cc(C2([S@](C)(=N)=O)CC2)nc(-c2cc[nH]c3nccc2-3)n1 [AZD6738]"
  drug sensitivity score: 0
- compound: "COC(=O)C[C@](O)(CCCC(C)(C)O)C(=O)O[C@@H]1C(OC)=C[C@]23CCCN2CCc2cc4c(cc2[C@H]13)OCO4 [Omacetaxine]"
  drug sensitivity score: 8.4

* * *

- Tested on: DLD1 NRF2-GOF
- procedure text: drug sensitivity score (DSS) cytotoxicity (DSS score); higher = more toxic; extreme values may be limits of the assay
- experimental context: 72 h; CellTox Green cytotoxicity
Below, each entry is listed alongside its reported drug sensitivity score.

- smiles input: "COc1cc2c(cc1OC(C)C)[C@H](c1ccc(Cl)cc1)N(c1ccc(N(C)C[C@H]3CC[C@H](N4CCN(C)C(=O)C4)CC3)cc1)C(=O)C2"
  drug sensitivity score: 0
- smiles input: "CC1=NN(c2ccc(C(=O)O)cc2)C(=O)C1=Cc1ccc(-c2cc(C)c(C)cc2[N+](=O)[O-])o1"
  drug sensitivity score: 0
- smiles input: "Cc1sc2c(c1C)C(c1ccc(Cl)cc1)=N[C@@H](CC(=O)OC(C)(C)C)c1nnc(C)n1-2"
  drug sensitivity score: 0
- smiles input: "CC(C)C[C@H](NC(=O)[C@@H](COC(C)(C)C)NC(=O)[C@H](Cc1ccc(O)cc1)NC(=O)[C@H](CO)NC(=O)[C@H](Cc1c[nH]c2ccccc12)NC(=O)[C@H](Cc1cnc[nH]1)NC(=O)[C@@H]1CCC(=O)N1)C(=O)N[C@@H](CCCNC(=N)N)C(=O)N1CCC[C@H]1C(=O)NNC(N)=O"
  drug sensitivity score: 0

* * *

- System: DLD1 NRF2-GOF
- procedure text: TC50 cytotoxicity; higher = less toxic
- experimental context: 72 h; CellTox Green cytotoxicity

- smiles input: "CC[C@]1(O)C[C@H]2CN(CCc3c([nH]c4ccccc34)[C@@](C(=O)OC)(c3cc4c(cc3OC)N(C=O)[C@H]3[C@@](O)(C(=O)OC)[C@H](OC(C)=O)[C@]5(CC)C=CCN6CC[C@]43[C@@H]65)C2)C1"
  TC50 cytotoxicity: "> 1 µM"
- smiles input: "CC(C)(C)c1nc(-c2cccc(NS(=O)(=O)c3c(F)cccc3F)c2F)c(-c2ccnc(N)n2)s1"
  TC50 cytotoxicity: "> 2.5 µM"
- smiles input: "CO[C@H]1CC[C@H](N2C(=O)CNc3ncc(-c4ccc(C(C)(C)O)nc4)nc32)CC1"
  TC50 cytotoxicity: "> 10 µM"
- smiles input: "Nc1ccn([C@@H]2O[C@H](CO)[C@@H](O)C2(F)F)c(=O)n1"
  TC50 cytotoxicity: "> 1 µM"
- smiles input: "COc1cc(Br)c(Nc2nc(-c3c(C)nc4ncccn34)cs2)c(Br)c1"
  TC50 cytotoxicity: "> 10 µM"
- smiles input: "CC(=O)N(O)CCCCCNC(=O)CCC(=O)N(O)CCCCCNC(=O)CCC(=O)N(O)CCCCCN"
  TC50 cytotoxicity: "> 10 µM"
